# ASSAY DETAILS: Oral bioavailability in rat at 3 mg/kg for 1 hrs
# Format: ADME, organism-based
# EXPERIMENTAL PARAMETERS: in vivo
ASSAY ENDPOINT: bioavailability (%)

INSERT INTO results (smiles_entry, unit_abbrev, experimental_result) VALUES
  ('CN1C(=O)CC[C@H]1C(=O)NCc1cccc(C(F)(F)F)c1Cl', '%', 65);

---

# ASSAY DETAILS: Cmax in rat at 3 mg/kg, po for 1 hrs
# Assay type: ADME, organism-based
# Parameters: dose 3 mg/kg, route oral
# EXPERIMENTAL PARAMETERS: in vivo
ASSAY ENDPOINT: Cmax (nM)

INSERT INTO results (smiles_entry, assay_endpoint, experimental_result) VALUES
  ('CN1C(=O)CC[C@H]1C(=O)NCc1cccc(C(F)(F)F)c1Cl', 'Cmax', 2450);

---

# ASSAY DETAILS: Solubility of the compound
# Assay type: physicochemical
ASSAY ENDPOINT: solubility (µg/mL)

INSERT INTO results (smiles_entry, assay_endpoint, experimental_result) VALUES
  ('CN1C(=O)CC[C@H]1C(=O)NCc1cccc(C(F)(F)F)c1Cl', 'solubility', 970);

---

Target chain: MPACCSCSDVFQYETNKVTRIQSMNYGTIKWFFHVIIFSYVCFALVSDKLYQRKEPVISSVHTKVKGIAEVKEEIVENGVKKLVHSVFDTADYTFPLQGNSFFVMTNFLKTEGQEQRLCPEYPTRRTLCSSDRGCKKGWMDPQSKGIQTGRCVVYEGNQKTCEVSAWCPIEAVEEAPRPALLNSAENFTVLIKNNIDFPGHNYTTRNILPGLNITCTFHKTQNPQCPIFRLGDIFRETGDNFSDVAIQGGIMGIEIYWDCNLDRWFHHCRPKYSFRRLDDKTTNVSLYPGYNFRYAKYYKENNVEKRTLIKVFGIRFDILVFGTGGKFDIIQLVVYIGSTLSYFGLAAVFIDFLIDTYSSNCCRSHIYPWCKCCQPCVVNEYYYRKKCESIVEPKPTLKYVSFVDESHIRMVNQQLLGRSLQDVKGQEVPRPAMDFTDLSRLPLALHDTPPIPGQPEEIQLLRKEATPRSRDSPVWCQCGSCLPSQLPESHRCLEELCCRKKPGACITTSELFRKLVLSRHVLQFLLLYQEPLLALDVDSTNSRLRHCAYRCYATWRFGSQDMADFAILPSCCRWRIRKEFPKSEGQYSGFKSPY
Below, each entry is listed with its recorded IC50.
ASSAY ENDPOINT: IC50 (µM)

INSERT INTO assay_data (smiles_entry, limit_sign, experimental_result) VALUES
  ('CCN1C(=O)CC[C@H]1C(=O)NCC1CCCCC1', '<', 1),
  ('CCN1C(=O)CC[C@H]1C(=O)NCc1ccc(Cl)cc1', '=', 0.631),
  ('CCN1C(=O)CC[C@H]1C(=O)NCc1ccc(F)cc1Cl', '=', 0.0316),
  ('CCN1C(=O)CC[C@H]1C(=O)NCc1ccccc1OC', '<', 1),
  ('CC(=O)N1CCC[C@H]1C(=O)NCc1ccc(F)cc1Cl', '=', 0.1),
  ('CCN1C(=O)CC[C@H]1C(=O)NCc1ccccc1Cl', '=', 0.631),
  ('CN(C(=O)c1cc(Cl)c(=O)n(Cc2c(Cl)cccc2Cl)c1)c1ccccc1', '=', 0.126),
  ('O=C(NCc1ccc(F)cc1Cl)[C@@H]1CCC(=O)N1c1ccccc1', '=', 0.794),
  ('CCN1C(=O)CC[C@@H]1C(=O)NCc1ccc(F)cc1Cl', '=', 0.158),
  ('CN(Cc1ccc(Cl)cc1Cl)C(=O)[C@@H]1CCC(=O)N1C', '<', 1),
  ('CN1C(=O)CC[C@H]1C(=O)NCc1cccc(C(F)(F)F)c1Cl', '=', 0.00316),
  ('CCN1CCC[C@H]1C(=O)NCc1ccc(F)cc1Cl', '<', 1),
  ('CN1C(=O)CC[C@H]1C(=O)NCc1ccc(F)cc1Cl', '=', 0.1);
